Source of measurements: patent US20250026743A1

Consider the following compounds; for each one, report its IC50.
TEST_SYSTEM: hmGlu5 (Homo sapiens, UniProt P41594)
Construct: expressed in transfected cells; host or cells: HEK 293A
Sequence (P41594 21-1212): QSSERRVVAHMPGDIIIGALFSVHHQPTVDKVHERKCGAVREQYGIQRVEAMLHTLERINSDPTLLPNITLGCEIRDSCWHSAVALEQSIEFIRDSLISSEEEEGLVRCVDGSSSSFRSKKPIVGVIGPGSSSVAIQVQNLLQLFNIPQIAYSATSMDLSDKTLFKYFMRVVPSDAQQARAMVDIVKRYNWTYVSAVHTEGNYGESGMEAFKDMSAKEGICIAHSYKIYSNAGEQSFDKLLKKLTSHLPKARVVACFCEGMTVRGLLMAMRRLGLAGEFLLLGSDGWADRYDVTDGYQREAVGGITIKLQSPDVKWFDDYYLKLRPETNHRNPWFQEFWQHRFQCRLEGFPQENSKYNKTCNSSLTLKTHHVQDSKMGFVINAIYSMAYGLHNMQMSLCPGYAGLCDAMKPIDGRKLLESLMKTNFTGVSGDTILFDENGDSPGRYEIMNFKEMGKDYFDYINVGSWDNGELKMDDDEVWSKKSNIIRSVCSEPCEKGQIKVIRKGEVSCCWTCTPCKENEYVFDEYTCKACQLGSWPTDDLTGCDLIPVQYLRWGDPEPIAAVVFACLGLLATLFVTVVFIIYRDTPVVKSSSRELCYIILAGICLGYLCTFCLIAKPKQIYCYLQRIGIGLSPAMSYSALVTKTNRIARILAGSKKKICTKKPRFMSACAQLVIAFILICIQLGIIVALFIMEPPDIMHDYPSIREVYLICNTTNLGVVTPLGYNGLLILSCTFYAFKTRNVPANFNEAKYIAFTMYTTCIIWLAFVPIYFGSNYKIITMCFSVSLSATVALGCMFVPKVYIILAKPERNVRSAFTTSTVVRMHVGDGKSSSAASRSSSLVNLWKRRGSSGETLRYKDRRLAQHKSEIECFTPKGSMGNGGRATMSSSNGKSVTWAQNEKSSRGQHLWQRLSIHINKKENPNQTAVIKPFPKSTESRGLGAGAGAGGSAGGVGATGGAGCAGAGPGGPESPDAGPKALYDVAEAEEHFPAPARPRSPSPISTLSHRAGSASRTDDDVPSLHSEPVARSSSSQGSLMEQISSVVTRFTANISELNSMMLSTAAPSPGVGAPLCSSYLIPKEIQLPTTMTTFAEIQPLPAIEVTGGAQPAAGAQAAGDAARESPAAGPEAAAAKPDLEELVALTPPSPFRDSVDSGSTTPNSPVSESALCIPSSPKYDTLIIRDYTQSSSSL
ASSAY_DETAILS: mGlu5 Ca2+ flux assay in HEK 293A cells (negative allosteric modulation of glutamate EC80 response)
Assay type: cell-based
STATED_CONDITIONS: HEK 293A cells, Ca2+ flux, glutamate EC80; >10,000 = decrease without plateau; read-out: hmGlu5 NAM IC50
Give bare numbers, in nM.

Completed entries (count: 2):
COMPOUND | READOUT_UNIT | IC50
Fc1ccc(-c2nc(-c3cc(-c4cncc(F)c4)cc(C(F)F)n3)no2)nc1 | nM | 125
Cc1cc(-c2cncc(F)c2)cc(-c2nc(-c3ccc(F)cn3)no2)n1 | nM | 123

Each compound below has a reported value. Please supply its IC50.
1. COc1cncc(-c2cc(-c3nnc(-c4ccc(F)cn4)o3)nc(C)c2F)c1
2. Cc1nc(-c2nnc(-c3ccc(F)cn3)o2)cc(-c2cnccc2Cl)c1F
3. Cc1ccncc1-c1cc(-c2noc(-c3cccc(Cl)n3)n2)nc(C)c1F
4. Cc1ccncc1-c1cc(-c2noc(-c3cscn3)n2)nc(C)c1F
5. Cc1csc(-c2noc(-c3cc(-c4cncc(F)c4)c(F)c(C)n3)n2)n1
6. [2H]C([2H])([2H])Oc1c(-c2cncc(F)c2)cc(-c2nc(-c3ccc(F)cn3)no2)nc1C
7. Cc1nc(-c2nc(-c3ccc(F)cc3)no2)cc(-c2cncc(F)c2)c1F
8. COc1c(-c2cnccc2C)cc(-c2noc(-c3ccc(F)cn3)n2)nc1C

[336, 138, 493, 308, 122, 624, 677, 641]

Each compound below has a reported value. Please supply its IC50.
1. Cc1nc(-c2nnc(-c3ccc(F)cn3)o2)cc(-c2cncc(F)c2)c1OC(C)C
2. COc1c(-c2cncc(F)c2)cc(-c2noc(-c3ccc(F)cn3)n2)nc1C
3. Cc1cc(CC2CCOC2)cc(-c2noc(-c3ccc(F)cn3)n2)n1 (stereo not drawn)
4. Cc1ccncc1-c1cc(-c2noc(-c3ccc(F)cn3)n2)ncc1F
5. Cc1nc(-c2noc(-c3ccc(F)cn3)n2)cc(-c2cncc(F)c2C)c1F
6. Cc1nc(-c2noc(-c3ccc(F)cc3)n2)cc(-c2cncc(F)c2)c1F
7. Cc1cccc(-c2nc(-c3cc(-c4cnccc4C)c(F)c(C)n3)no2)n1
8. Cc1ccncc1-c1cc(-c2noc(-c3cccc(F)c3)n2)nc(C)c1F

1: 946; 2: 452; 3: 766; 4: 192; 5: 304; 6: 81; 7: 1090; 8: 49

###

TEST_SYSTEM: hmGlu5 (Homo sapiens)
Construct: expressed in transfected cells; host or cells: HEK 293A
ASSAY_DETAILS: mGlu5 Ca2+ flux assay in HEK 293A cells (negative allosteric modulation of glutamate EC80 response)
Assay type: cell-based
STATED_CONDITIONS: HEK293-A, read-out: hmGlu5 NAM Emin (%)
EXPERIMENTAL_READOUT: remaining activity at 30 µM (%)
Give bare numbers, in %.

Completed entries (count: 8):
STRUCTURE_SMILES_STRING | MEASUREMENT
Cc1nc(-c2nnc(-c3ccc(F)cc3)o2)cc(-c2cncc(F)c2)c1F | 2
Cc1nc(-c2noc(-c3cccc(Cl)c3)n2)cc(-c2cncc(F)c2)c1F | 34
Cc1nc(-c2nnc(-c3cccnc3)o2)cc(-c2cncc(F)c2)c1F | 58
Cc1csc(-c2nnc(-c3cc(-c4cncc(F)c4)c(F)c(C)n3)o2)n1 | 2
Cc1ccc(-c2nnc(-c3cc(-c4cncc(F)c4)c(F)c(C)n3)o2)nc1 | 4
Cc1nc(-c2nnc(-c3ccncc3)o2)cc(-c2cncc(F)c2)c1F | 55
Cc1cccc(-c2nnc(-c3cc(-c4cncc(F)c4)c(F)c(C)n3)o2)n1 | 31
Cc1nc(-c2nnc(-c3ccc(F)cn3)o2)cc(-c2cncc(F)c2)c1F | 2

Let us move to another entry and its remaining activity at 30 µM.
Which remaining activity at 30 µM value is on record for "Cc1nc(-c2nnc(-c3ccccn3)o2)cc(-c2cncc(F)c2)c1F" ?
2
